test system: upland rice (Oryza sp., var. Tebonnet, RICE); experiment: Pre-emerge test, crop safety; assay type: in vivo; settings: 63 g ai/ha; crop damage rating 0-100, 14 days after application
Can you tell me Pre-emerge Herbicidal Activity RICE for the items I'm about to list?
Answers are plain numbers.

Example results:
{"columns": ["Molecule", "Assayed system", "Pre-emerge Herbicidal Activity RICE"],
 "data": [
  ["Cn1c(C(F)(F)F)cc(=O)n(-c2ccc(Cl)cc2NC(=O)OCc2ccccc2F)c1=O", "upland rice (Oryza sp., var. Tebonnet, RICE)", 30],
  ["COc1c(Cl)cc(F)c(-n2c(=O)cc(C(F)(F)F)n(C)c2=O)c1NC(=O)OCc1cccc(F)c1", "upland rice (Oryza sp., var. Tebonnet, RICE)", 70],
  ["COc1c(Cl)cc(F)c(-n2c(=O)cc(C(F)(F)F)n(C)c2=O)c1NC(=O)NCc1ccccc1", "upland rice (Oryza sp., var. Tebonnet, RICE)", 30],
  ["Cc1ccc(-n2c(=O)cc(C(F)(F)F)n(C)c2=O)c(NC(=O)c2ccc3ccccc3c2)c1", "upland rice (Oryza sp., var. Tebonnet, RICE)", 0],
  ["COc1c(Cl)cc(F)c(-n2c(=O)cc(C(F)(F)F)n(C)c2=O)c1NC(=O)OCc1ccccc1[N+](=O)[O-]", "upland rice (Oryza sp., var. Tebonnet, RICE)", 50],
  ["COc1c(Cl)cc(F)c(-n2c(=O)cc(C(F)(F)F)n(C)c2=O)c1NC(=O)OCc1c(Cl)cccc1Cl", "upland rice (Oryza sp., var. Tebonnet, RICE)", 10]
]}

Could you report Pre-emerge Herbicidal Activity RICE for every entry in the following list?
1. COc1c(Cl)cc(F)c(-n2c(=O)cc(C(F)(F)F)n(C)c2=O)c1NC(=O)OCc1cc(F)ccc1F
2. Cn1c(C(F)(F)F)cc(=O)n(-c2ccc(C(N)=S)cc2NC(=O)c2ccc3ccccc3c2)c1=O
3. Cn1c(C(F)(F)F)cc(=O)n(-c2c(F)cc(Cl)c(OCC#N)c2NC(=O)c2ccc3ccccc3c2)c1=O
4. COc1c(Cl)cc(F)c(-n2c(=O)cc(C(F)(F)F)n(C)c2=O)c1NC(=O)OCc1ccc(C(C)C)cc1
5. CCOC(=O)C(C)Oc1c(Cl)cc(F)c(-n2c(=O)cc(C(F)(F)F)n(C)c2=O)c1NC(=O)c1ccc2ccccc2c1 (centres unmarked)

// result
1: 80; 2: 20; 3: 80; 4: 0; 5: 10

###

Can you tell me Post-emerge Herbicidal Activity DIGSA (phytotoxicity rating) for the items I'm about to list?
tested on: large crabgrass (Digitaria sanguinalis, DIGSA); experiment: Post-emerge test, greenhouse herbicide activity screening; assay type: in vivo; conditions: 63 g ai/ha; post-emerge; 14 days after application; rating scale 0-100
Numbers only.

{"columns": ["Query smiles", "Endpoint result"],
 "data": [
  ["COc1c(Cl)cc(F)c(-n2c(=O)cc(C(F)(F)F)n(C)c2=O)c1NNC(=O)c1ccc2ccccc2c1", 30],
  ["COc1c(Cl)cc(F)c(-n2c(=O)cc(C(F)(F)F)n(C)c2=O)c1NN=C(C(F)(F)F)C(F)(F)F", 30],
  ["COc1cc(Cl)cc(Cl)c1-n1c(=O)cc(C(F)(F)F)n(C)c1=O", 0],
  ["COc1c(Cl)cc(F)c(-n2c(=O)cc(C(F)(F)F)n(C)c2=O)c1SC", 0],
  ["COc1c(Cl)cc(F)c(-n2c(=O)cc(C(F)(F)F)n(C)c2=O)c1NNC(=O)c1ccc(F)cc1F", 30],
  ["COc1c(Cl)cc(F)c(-n2c(=O)cc(C(F)(F)F)n(C)c2=O)c1NN=Cc1ccc(F)cc1F", 30],
  ["CCOC(=O)CC(C)=NNc1c(OC)c(Cl)cc(F)c1-n1c(=O)cc(C(F)(F)F)n(C)c1=O", 20]
]}

// below: Post-emerge Herbicidal Activity DIGSA (phytotoxicity rating) requested for another compound
// query # input compound: "C=CC=NNc1c(OC)c(Cl)cc(F)c1-n1c(=O)cc(C(F)(F)F)n(C)c1=O" ; wanted: its Post-emerge Herbicidal Activity DIGSA (phytotoxicity rating)
// result 60

###

tested on: barnyardgrass (Echinochloa crus-galli, ECHCG); assay: Post-emerge test, greenhouse herbicide activity screening; type: in vivo; conditions: post-emerge, 250 g ai/ha, 14 days after application, rating scale 0-100
Can you tell me phytotoxicity rating ECHCG for the items I'm about to list?
Give bare numbers.

Example results:
{"columns": ["Query smiles", "phytotoxicity rating ECHCG"],
 "data": [
  ["COc1c(Cl)cc(F)c(-n2c(=O)cc(C(F)(F)F)n(C)c2=O)c1NC(=O)CCc1ccccc1", 100],
  ["Cn1c(C(F)(F)F)cc(=O)n(-c2c(F)cc(Cl)c(OC(F)F)c2NC(=O)c2ccc3ccccc3c2)c1=O", 20],
  ["Cc1ccc(OC(=O)Nc2c(C)c(Cl)cc(F)c2-n2c(=O)cc(C(F)(F)F)n(C)c2=O)cc1C", 60]
]}

Could you report phytotoxicity rating ECHCG for every entry in the following list?
1. COc1c(Cl)cc(F)c(-n2c(=O)cc(C(F)(F)F)n(C)c2=O)c1NC(=O)c1ccc(CCl)cc1
2. COc1c(Cl)cc(F)c(-n2c(=O)cc(C(F)(F)F)n(C)c2=O)c1NC(=O)c1ccccc1Cl

// result
1: 0; 2: 70

###

system: redroot pigweed (Amaranthus retroflexus, AMARE); test: Pre-emerge test, greenhouse herbicide activity screening; type: in vivo; settings: 63 g ai/ha; pre-emerge; rated 14 days after application; 0 = no damage, 100 = complete death
Measurement label: Pre-emerge Herbicidal Activity AMARE (phytotoxicity rating, scale 0-100)
One number for each entry.

{"columns": ["Query smiles", "Endpoint result"],
 "data": [
  ["CCc1ccc(C(=O)Nc2c(OC)c(Cl)cc(F)c2-n2c(=O)cc(C(F)(F)F)n(C)c2=O)cc1", 100],
  ["C=C(C)C(=O)N(C(=O)C(=C)C)c1c(OC)c(Cl)cc(F)c1-n1c(=O)cc(C(F)(F)F)n(C)c1=O", 0],
  ["COc1c(Cl)cc(F)c(-n2c(=O)cc(C(F)(F)F)n(C)c2=O)c1N", 100],
  ["COc1c(Cl)cc(F)c(-n2c(=O)cc(C(F)(F)F)n(C)c2=O)c1N1CCCC1", 0],
  ["COc1c(Cl)cc(F)c(-n2c(=O)cc(C(F)(F)F)n(C)c2=O)c1NC(=O)C(F)(F)F", 50]
]}

Could you report Pre-emerge Herbicidal Activity AMARE (phytotoxicity rating, scale 0-100) for every entry in the following list?
1. COc1c(Cl)cc(F)c(-n2c(=O)cc(C(F)(F)F)n(C)c2=O)c1NC(=O)C=C(C)C
2. COc1c(Cl)cc(F)c(-n2c(=O)cc(C(F)(F)F)n(C)c2=O)c1N(C(C)=O)C(C)=O

// result
90
100

###

Can you tell me Pre-emerge Herbicidal Activity CORN for the items I'm about to list?
tested on: field corn (Zea mays L., var. Dekalb 535, CORN); assay: Pre-emerge test, crop safety; type: in vivo; conditions: 63 g ai/ha; crop damage rating 0-100, 14 days after application
One number for each entry.

Example results:
{"columns": ["Compound", "Assayed system", "Endpoint result"],
 "data": [
  ["COc1c(Cl)cc(F)c(-n2c(=O)cc(C(F)(F)F)n(C)c2=O)c1NC(=O)OCc1c(Cl)cccc1Cl", "field corn (Zea mays L., var. Dekalb 535, CORN)", 0],
  ["COC(=O)N(C(=O)OC)c1c(OC)c(Cl)cc(F)c1-n1c(=O)cc(C(F)(F)F)n(C)c1=O", "field corn (Zea mays L., var. Dekalb 535, CORN)", 0],
  ["COc1c(Cl)cc(F)c(-n2c(=O)cc(C(F)(F)F)n(C)c2=O)c1NC(=O)OC(c1ccccc1)C1CC1 (stereo not shown)", "field corn (Zea mays L., var. Dekalb 535, CORN)", 0],
  ["COc1c(Cl)cc(F)c(-n2c(=O)cc(C(F)(F)F)n(C)c2=O)c1NC(=O)OC(C)c1ccccc1 (stereo not shown)", "field corn (Zea mays L., var. Dekalb 535, CORN)", 30],
  ["Cn1c(C(F)(F)F)cc(=O)n(-c2ccc(Cl)cc2NC(=O)OCc2ccccc2F)c1=O", "field corn (Zea mays L., var. Dekalb 535, CORN)", 0],
  ["CCCCCC(=O)Nc1c(OC)c(Cl)cc(F)c1-n1c(=O)cc(C(F)(F)F)n(C)c1=O", "field corn (Zea mays L., var. Dekalb 535, CORN)", 50],
  ["COc1c(Cl)cc(F)c(-n2c(=O)cc(C(F)(F)F)n(C)c2=O)c1NC(=O)OCc1ccc(OC(F)(F)F)cc1", "field corn (Zea mays L., var. Dekalb 535, CORN)", 0],
  ["CCOC(=O)COc1c(Cl)cc(F)c(-n2c(=O)cc(C(F)(F)F)n(C)c2=O)c1NC(=O)C=Cc1ccccc1", "field corn (Zea mays L., var. Dekalb 535, CORN)", 0]
]}

Could you report Pre-emerge Herbicidal Activity CORN for every entry in the following list?
1. Cn1c(C(F)(F)F)cc(=O)n(-c2c(F)cc(Cl)c(OCC#N)c2NC(=O)OCc2ccccc2)c1=O
2. COc1c(Cl)cc(F)c(-n2c(=O)cc(C(F)(F)F)n(C)c2=O)c1NC(=O)Nc1ccccc1
3. COc1c(Cl)cc(F)c(-n2c(=O)cc(C(F)(F)F)n(C)c2=O)c1NC(=O)OCc1ccc(Cl)c(Cl)c1

// result
1. 35
2. 0
3. 0

Could you report Pre-emerge Herbicidal Activity CORN for every entry in the following list?
1. COc1c(Cl)cc(F)c(-n2c(=O)cc(C(F)(F)F)n(C)c2=O)c1NC(=O)OCc1cc(C)cc(C)c1
2. Cn1c(C(F)(F)F)cc(=O)n(-c2c(F)cc(Cl)c(OCC#N)c2NC(=O)c2ccc3ccccc3c2)c1=O

// result
0
75

Could you report Pre-emerge Herbicidal Activity CORN for every entry in the following list?
1. Cc1ccc(OC(=O)Nc2c(C)c(Cl)cc(F)c2-n2c(=O)cc(C(F)(F)F)n(C)c2=O)cc1C
2. COc1c(Cl)cc(F)c(-n2c(=O)cc(C(F)(F)F)n(C)c2=O)c1NC(=O)OCc1ccc(C(F)(F)F)cc1
3. COc1c(Cl)cc(F)c(-n2c(=O)cc(C(F)(F)F)n(C)c2=O)c1NC(=O)C1CC1

// result
1: 0; 2: 0; 3: 50
